target: N-type calcium channel subunits (α1B, α2δ, and β3a) (Homo sapiens, UniProt Q00975); test: Block of Cav2.2 channel, whole cell voltage clamp, manual and PatchXpress; type: cell-based; settings: Table 5; table follows Assay Example 3 (whole cell voltage clamp / PatchXpress); assay not given
Sequence (Q00975 whole entry): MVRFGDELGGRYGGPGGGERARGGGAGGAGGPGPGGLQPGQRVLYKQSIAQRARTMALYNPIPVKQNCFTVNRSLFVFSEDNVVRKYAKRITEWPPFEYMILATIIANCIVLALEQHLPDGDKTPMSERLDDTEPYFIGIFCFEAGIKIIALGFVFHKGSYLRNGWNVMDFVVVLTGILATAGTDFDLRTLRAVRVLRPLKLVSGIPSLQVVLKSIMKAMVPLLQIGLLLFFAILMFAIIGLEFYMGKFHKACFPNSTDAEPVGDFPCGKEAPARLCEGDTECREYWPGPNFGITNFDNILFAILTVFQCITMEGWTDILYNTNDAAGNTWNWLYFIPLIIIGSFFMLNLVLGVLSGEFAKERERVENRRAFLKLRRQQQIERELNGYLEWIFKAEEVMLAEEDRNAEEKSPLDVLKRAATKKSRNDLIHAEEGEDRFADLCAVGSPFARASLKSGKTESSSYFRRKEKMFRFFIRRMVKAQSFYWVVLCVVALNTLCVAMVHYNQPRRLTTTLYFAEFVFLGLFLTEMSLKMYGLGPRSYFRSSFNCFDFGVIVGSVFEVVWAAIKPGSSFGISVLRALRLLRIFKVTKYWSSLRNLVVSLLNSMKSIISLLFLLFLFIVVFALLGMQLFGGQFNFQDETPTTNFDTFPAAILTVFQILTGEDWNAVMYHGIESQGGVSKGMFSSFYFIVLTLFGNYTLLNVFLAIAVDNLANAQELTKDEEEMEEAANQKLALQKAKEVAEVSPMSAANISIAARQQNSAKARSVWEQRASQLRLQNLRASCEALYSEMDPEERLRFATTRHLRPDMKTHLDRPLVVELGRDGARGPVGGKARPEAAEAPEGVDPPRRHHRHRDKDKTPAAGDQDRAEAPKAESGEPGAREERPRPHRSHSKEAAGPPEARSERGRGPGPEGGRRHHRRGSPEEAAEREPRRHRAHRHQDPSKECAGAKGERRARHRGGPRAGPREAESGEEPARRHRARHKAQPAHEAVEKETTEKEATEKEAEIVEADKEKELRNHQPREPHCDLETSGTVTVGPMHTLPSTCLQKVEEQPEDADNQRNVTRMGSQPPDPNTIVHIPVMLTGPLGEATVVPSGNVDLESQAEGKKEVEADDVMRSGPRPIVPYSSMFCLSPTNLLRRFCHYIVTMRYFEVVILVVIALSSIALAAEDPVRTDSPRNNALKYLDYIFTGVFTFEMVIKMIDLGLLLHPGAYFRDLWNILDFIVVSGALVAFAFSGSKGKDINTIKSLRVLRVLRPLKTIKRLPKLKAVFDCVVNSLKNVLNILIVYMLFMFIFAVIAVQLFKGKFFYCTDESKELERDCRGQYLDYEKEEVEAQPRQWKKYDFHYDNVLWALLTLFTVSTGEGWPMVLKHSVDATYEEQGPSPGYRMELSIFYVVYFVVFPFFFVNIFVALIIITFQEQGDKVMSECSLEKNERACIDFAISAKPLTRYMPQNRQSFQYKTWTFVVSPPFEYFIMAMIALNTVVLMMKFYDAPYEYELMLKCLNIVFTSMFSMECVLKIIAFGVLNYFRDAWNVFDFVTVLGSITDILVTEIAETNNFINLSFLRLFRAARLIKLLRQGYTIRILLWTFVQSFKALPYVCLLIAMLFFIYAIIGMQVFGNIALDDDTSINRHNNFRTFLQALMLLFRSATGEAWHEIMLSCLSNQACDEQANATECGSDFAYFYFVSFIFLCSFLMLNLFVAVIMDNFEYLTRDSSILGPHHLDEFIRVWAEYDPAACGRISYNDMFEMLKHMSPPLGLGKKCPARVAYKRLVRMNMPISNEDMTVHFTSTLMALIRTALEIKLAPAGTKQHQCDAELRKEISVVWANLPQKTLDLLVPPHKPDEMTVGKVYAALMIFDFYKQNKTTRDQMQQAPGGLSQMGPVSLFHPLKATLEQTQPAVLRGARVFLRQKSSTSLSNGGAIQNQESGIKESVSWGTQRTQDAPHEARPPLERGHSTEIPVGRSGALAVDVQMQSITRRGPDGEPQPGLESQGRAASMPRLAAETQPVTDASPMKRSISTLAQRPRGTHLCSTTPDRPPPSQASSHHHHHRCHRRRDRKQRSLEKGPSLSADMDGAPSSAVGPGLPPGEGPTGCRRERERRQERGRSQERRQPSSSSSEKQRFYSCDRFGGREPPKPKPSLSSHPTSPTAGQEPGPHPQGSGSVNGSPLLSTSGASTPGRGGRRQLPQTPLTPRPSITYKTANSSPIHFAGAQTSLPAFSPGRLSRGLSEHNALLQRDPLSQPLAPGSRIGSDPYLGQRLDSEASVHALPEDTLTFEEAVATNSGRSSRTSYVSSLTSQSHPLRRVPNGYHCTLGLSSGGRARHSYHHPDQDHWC
Sequence (P54289 25-1103 partner): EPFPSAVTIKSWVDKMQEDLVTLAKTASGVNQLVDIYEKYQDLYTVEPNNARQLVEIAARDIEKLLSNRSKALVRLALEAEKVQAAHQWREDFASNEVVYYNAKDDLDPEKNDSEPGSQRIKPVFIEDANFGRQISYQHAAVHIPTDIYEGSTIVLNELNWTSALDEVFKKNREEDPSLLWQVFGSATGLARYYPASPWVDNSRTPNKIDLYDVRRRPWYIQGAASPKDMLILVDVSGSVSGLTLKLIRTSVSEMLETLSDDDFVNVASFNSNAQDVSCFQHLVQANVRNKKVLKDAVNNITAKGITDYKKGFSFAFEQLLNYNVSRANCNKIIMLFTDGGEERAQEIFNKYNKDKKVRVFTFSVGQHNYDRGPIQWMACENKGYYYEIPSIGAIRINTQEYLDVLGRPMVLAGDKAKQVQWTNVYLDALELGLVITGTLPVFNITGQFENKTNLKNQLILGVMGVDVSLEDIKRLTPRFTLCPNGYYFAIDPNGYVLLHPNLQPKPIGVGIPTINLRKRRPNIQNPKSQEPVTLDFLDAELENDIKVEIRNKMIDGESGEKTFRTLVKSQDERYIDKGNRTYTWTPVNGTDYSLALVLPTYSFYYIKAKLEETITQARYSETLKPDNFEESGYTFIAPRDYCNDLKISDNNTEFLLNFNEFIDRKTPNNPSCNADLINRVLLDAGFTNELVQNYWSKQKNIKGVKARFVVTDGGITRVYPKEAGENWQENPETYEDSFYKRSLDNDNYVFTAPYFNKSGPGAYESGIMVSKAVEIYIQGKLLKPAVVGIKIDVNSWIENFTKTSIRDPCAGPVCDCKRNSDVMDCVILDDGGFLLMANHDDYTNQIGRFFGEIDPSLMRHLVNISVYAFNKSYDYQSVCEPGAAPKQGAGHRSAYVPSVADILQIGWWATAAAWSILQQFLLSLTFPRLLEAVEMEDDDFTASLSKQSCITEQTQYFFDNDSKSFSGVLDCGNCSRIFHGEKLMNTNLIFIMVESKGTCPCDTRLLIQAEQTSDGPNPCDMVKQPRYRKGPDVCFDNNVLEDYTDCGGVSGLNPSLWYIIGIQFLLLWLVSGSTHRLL
Sequence (P54284 whole entry partner): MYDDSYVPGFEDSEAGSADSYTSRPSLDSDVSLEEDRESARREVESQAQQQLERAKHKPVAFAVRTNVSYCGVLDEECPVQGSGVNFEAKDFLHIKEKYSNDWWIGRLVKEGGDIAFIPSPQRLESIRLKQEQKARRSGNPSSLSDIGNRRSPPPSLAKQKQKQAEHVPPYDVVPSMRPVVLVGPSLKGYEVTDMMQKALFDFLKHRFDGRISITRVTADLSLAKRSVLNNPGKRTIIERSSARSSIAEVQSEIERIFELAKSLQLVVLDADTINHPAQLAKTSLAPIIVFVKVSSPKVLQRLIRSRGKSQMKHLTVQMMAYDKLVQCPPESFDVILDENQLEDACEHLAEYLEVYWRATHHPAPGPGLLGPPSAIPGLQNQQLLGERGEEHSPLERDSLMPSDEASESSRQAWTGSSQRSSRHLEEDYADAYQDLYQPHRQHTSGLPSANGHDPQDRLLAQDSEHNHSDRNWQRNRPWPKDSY
IC50 values, listed per item
Unit nM implied. Number only.

The following compounds have reported results that may help.
O=C(NC[C@H]1C[C@H](S(=O)(=O)c2cc(F)cc(C(F)(F)F)c2)C1)c1cc(C(F)(F)F)ccn1 [Compound 397] | 910
CC(C)(C)S(=O)(=O)c1ccsc1C(=O)N[C@H]1CC[C@H](CS(=O)(=O)c2cccc(C(F)(F)F)c2)CC1 [Compound 178] | 250
O=S(=O)(c1cccc(C(F)(F)F)c1)[C@H]1C[C@H](c2c[nH]c(-c3ccc(C(F)(F)F)nc3)n2)C1 [Compound 445] | 200

Turning to the following compound.
stdin: Reported IC50 for O=C(CNC1CCC(F)(F)CC1)N[C@H]1CC[C@H](CS(=O)(=O)c2cccc(C(F)(F)F)c2)CC1 [Compound 165] : what is it?
stdout: 540

---

target: human α1G T-type channels (Homo sapiens); assay: T-type calcium channel block, whole cell patch clamp, α1G; settings: HEK cells stably expressing human α1G; mainly non-inactivated protocol; values above 10,000 nM represented as 10000
Test Readout: IC50 (µM)
Express your answer in µM, writing the number without its unit.

stdin: Which IC50 is reported for this compound? CC1(CNC(=O)c2ccc(C(F)(F)F)cc2S(C)(=O)=O)CCC(F)(S(=O)(=O)c2cccc(C(F)(F)F)c2)CC1 (stereo not shown)
stdout: 0.96

stdin: Quick check: IC50 of "CS(=O)(=O)c1ccc(C(=O)N[C@H]2CC[C@@](F)(S(=O)(=O)c3cccc(C(F)(F)F)c3)CC2)c(Cl)c1" ?
stdout: 2.23

stdin: Fill blank: measured IC50 of the compound "O=C(CNC1CCC(F)(F)CC1)N[C@H]1CC[C@H](CS(=O)(=O)c2cccc(C(F)(F)F)c2)CC1" is ____.
stdout: 4.37

---

molecular target: Human Cav 2.2 channels (Homo sapiens, UniProt Q00975); test: Fluorescent assay for CaV2.2 channels using potassium depolarization (VIPR/FLIPR); format: cell-based; conditions: FLIPR data; ratio closed/inactivated IC50
Reported CAv2.2 IC50 Ratio closed/inact. is given for each of the following molecules.
Number only, please.

Worked cases, answers included:
CC(C)([C@H]1C[C@H](NC(=O)c2ccc(S(C)(=O)=O)cc2Cl)C1)S(=O)(=O)c1cccc(C(F)(F)F)c1 | 7.6
CC(C)(C[C@H]1C[C@H](NC(=O)c2ccc(C(F)(F)F)cn2)C1)S(=O)(=O)c1cccc(C(F)(F)F)c1 | 5.3
CC(C)([C@H]1C[C@@H](NC(=O)c2ccc(Cl)c(F)c2)C1)S(=O)(=O)c1cccc(OC(F)(F)F)c1 | 6.2
CC(C)([C@H]1C[C@H](NS(=O)(=O)c2ccc(F)c(C(F)(F)F)c2)C1)S(=O)(=O)c1cc(F)cc(C(F)(F)F)c1 | 3.7
CC(C)([C@H]1C[C@@H](Nc2ccnc(C(F)(F)F)n2)C1)S(=O)(=O)c1cccc(OC(F)(F)F)c1 | 4.1

// below: CAv2.2 IC50 Ratio closed/inact. requested for another molecule
stdin: Reported CAv2.2 IC50 Ratio closed/inact., molecule "CC(C)([C@H]1C[C@@H](CNC(=O)c2ccc(Cl)c(OC(F)(F)F)c2)C1)S(=O)(=O)c1cccc(C(F)(F)F)c1" : ____
stdout: 15.5
